Note to self: these compounds have pIC50 reported for Amine oxidase [flavin-containing] B (Rattus norvegicus, UniProt P19643) in various publications.
pIC50: −log10 of the molar value.
Recorded Metric: pIC50

(1) Cn1c(N2N=C(c3ccc(Cl)cc3)CC2c2ccco2)nc2ccccc2c1=O (centres undefined)
(2) NC(=O)[C@@H]1CCCN1Cc1cc(=O)oc2cc(OCc3ccccc3)ccc12
(3) O=C1c2ccccc2-c2nnc(-c3cccs3)cc21
(4) NC(=O)CCc1cc(=O)oc2cc(OCc3cccc(Cl)c3)ccc12
Prompt: Output the listed items in decreasing order of pIC50. Answer by naming the labels in the order asked.
Completion: 4, 2, 3, 1

(1) COc1cc2ccc(=O)oc2cc1OCc1ccccc1
(2) O=C(/C=C/C=C/c1ccc2c(c1)OCO2)N1CCCCC1
(3) C[C@H](Nc1cc(=O)oc2cc(OCc3ccccc3)ccc12)C(N)=O
Prompt: Sort the compounds on pIC50; start with the lowest figure. Answer by naming the labels in the order asked.
Completion: 1, 3, 2

(P) COc1ccc(C2=NN(c3nc4ccccc4c(=O)n3C)C(c3ccco3)C2)cc1 (centres undefined)
(Q) O=C1c2ccccc2-c2nnc(-c3cc(Cl)cc(Cl)c3)cc21
Prompt: // returns P or Q , whichever has the lower pIC50 Pick one; state its label.
Completion: P
(P: 5.69, Q: 6.15)

(1) O=c1cc(CNCc2ccccc2)c2ccc(OCc3cccc(Cl)c3)cc2o1
(2) Oc1ccc(C2CC(c3ccc(O)cc3O)=NN2C(=S)Nc2ccccc2)cc1 (centres undefined)
Prompt: Hi there! Just curious which has the higher pIC50 between 1 and 2 . Pick one; state its label.
Completion: 1
(1: 5.44, 2: 3.33)

(I) NC(=O)[C@@H]1CCCN1Cc1cc(=O)oc2cc(OCc3cccc(F)c3)ccc12
(II) COc1ccccc1NC(=S)N1N=C(c2ccccc2O)CC1c1ccccc1O (centres undefined)
(III) O=C(NCCN1CCOCC1)c1cnc(O)c(Cl)c1
Prompt: Sort the compounds on pIC50; start with the lowest figure. Answer by naming the labels in the order asked.
Completion: II, III, I

(A) Cn1c(N/N=C(/C=C/c2cccs2)c2ccc(Cl)cc2)nc2ccccc2c1=O
(B) NC(=O)[C@@H]1CCCN1c1cc(=O)oc2cc(OCc3ccccc3)ccc12
(C) NC(=O)CNCc1ccc(OCc2ccccc2)cc1
Prompt: // ranking: key=pIC50, reverse=True Answer by naming the labels in the order asked.
Completion: C, B, A
(C: 5.50, B: 4.79, A: 3.38)

(1) c1ccc(COc2ccc3ccoc3c2)cc1
(2) O=C(O)c1cc(=O)oc2cc(OCc3cccc(Cl)c3)ccc12
(3) CN1CCN(C(=O)/C=C/C=C/c2ccc3c(c2)OCO3)CC1
Prompt: Sort the compounds on pIC50; start with the lowest figure. Answer by naming the labels in the order asked.
Completion: 2, 1, 3
(2: 4.00, 1: 5.74, 3: 6.02)

---

Note to self: these compounds have pIC50 reported for Amine oxidase [flavin-containing] B (Rattus norvegicus, UniProt P19643) in various publications.
pIC50: −log10 of the molar value.
Recorded Metric: pIC50

- Compound: "O=c1cc(C(F)(F)F)c2ccc(OCc3ccccc3)cc2o1"
  Target Desc: "Amine oxidase [flavin-containing] B (Rattus norvegicus, UniProt P19643)"
  pIC50: 5.86
- Compound: "CNCc1cc(=O)oc2cc(OCc3cccc(F)c3)ccc12"
  Target Desc: "Amine oxidase [flavin-containing] B (Rattus norvegicus, UniProt P19643)"
  pIC50: 7.74
- Compound: "O=C(Nc1cc2cc[nH]c2cn1)c1ccc(F)c(F)c1"
  Target Desc: "Amine oxidase [flavin-containing] B (Rattus norvegicus, UniProt P19643)"
  pIC50: 5.89
- Compound: "C#CCN(C)Cc1ccccc1"
  Target Desc: "Amine oxidase [flavin-containing] B (Rattus norvegicus, UniProt P19643)"
  pIC50: 5.55
- Compound: "Cc1ccc(C(/C=C/c2cccs2)=N\\Nc2nc3ccccc3c(=O)n2C)cc1"
  Target Desc: "Amine oxidase [flavin-containing] B (Rattus norvegicus, UniProt P19643)"
  pIC50: 3.38

(A) NNc1nc2cc(Cl)c(Cl)cc2nc1Cc1ccccc1
(B) COc1ccc(C2CC(c3ccccc3O)=NN2C(=S)Nc2ccccc2)cc1 (configuration not stated)
Prompt: // returns A or B , whichever has the lower pIC50 Pick one; state its label.
Completion: B

(A) O=C1c2ccccc2-c2nnccc21
(B) Cc1c(C)c2ccc(OCS(=O)(=O)c3ccccc3)cc2oc1=O
Prompt: Hi there! Just curious which has the higher pIC50 between A and B . Pick one; state its label.
Completion: B
